- Assay Target: EGFR L858R/T790M/C797S (Homo sapiens, UniProt P00533, C797S/L858R/T790M)
- Sequence (P00533 25-1210 T790M/C797S/L858R): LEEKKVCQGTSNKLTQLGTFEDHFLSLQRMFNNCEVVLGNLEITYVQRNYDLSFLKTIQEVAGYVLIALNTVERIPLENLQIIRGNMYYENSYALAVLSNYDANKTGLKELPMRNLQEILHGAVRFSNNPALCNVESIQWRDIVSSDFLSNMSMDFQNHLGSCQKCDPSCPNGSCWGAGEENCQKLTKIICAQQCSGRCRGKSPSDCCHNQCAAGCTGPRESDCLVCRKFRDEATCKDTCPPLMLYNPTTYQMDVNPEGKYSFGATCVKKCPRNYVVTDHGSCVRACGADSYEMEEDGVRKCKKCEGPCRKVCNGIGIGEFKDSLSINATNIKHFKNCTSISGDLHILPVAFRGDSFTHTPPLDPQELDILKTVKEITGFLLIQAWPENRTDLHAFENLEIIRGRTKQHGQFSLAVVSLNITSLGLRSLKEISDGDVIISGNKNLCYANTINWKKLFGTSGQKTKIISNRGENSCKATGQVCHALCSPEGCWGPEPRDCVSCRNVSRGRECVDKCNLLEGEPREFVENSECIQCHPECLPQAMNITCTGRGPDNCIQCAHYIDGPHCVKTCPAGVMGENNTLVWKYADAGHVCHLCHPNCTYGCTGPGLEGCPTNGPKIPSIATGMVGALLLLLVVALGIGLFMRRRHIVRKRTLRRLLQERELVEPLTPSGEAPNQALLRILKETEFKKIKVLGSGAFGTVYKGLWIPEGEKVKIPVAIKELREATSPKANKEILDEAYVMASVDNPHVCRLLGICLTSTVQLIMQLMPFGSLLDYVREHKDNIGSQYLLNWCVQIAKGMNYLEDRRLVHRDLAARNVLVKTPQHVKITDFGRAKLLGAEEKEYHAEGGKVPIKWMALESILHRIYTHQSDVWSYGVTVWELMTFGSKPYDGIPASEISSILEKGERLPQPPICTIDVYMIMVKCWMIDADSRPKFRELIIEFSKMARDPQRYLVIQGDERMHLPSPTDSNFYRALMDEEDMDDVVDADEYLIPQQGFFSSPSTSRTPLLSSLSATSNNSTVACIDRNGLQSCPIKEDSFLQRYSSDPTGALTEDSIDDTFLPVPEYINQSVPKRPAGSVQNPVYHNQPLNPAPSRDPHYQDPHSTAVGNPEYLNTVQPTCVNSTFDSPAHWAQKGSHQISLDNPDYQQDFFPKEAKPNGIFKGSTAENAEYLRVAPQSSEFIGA
- Procedure Summary: Biochemical EGFR kinase assay (Lance Ultra TR-FRET), triple mutant L858R/T790M/C797S
- Condition Details: ATP at Km; read-out: IC50 L858R/T790M/C797S, Km ATP
Reported IC50 values for the following molecules.
Give the value in nM but do not write nM after it.

Known IC50 results, listed for orientation:
Molecule	IC50 (nM)
CN(C)C[C@H]1CC[C@@H](Nc2cc(Nc3ccnc(-c4cnn(S(=O)(=O)C5CC5)c4)n3)ncc2-c2cccc(F)n2)CC1 [Example 274]	0.03
C[C@]1(O)CC[C@@H](Nc2cc(Nc3ccnc(-c4cnn(S(=O)(=O)C5CC5)c4)n3)ncc2-c2ccc(CCC(F)(F)F)cn2)CC1 [Example 263]	3.4

Shift focus to the following entry.
So what does the record say about IC50 for CC(O)(c1ccc(-c2cnc(Nc3ccnc(-c4cnn(S(=O)(=O)C5CC5)c4)n3)cc2N[C@H]2CCC[C@H](CO)C2)nc1)C(F)(F)F (stereo partly drawn) [Example 232] ?
0.8
